Recorded values, source ChEMBL document CHEMBL1154855.

System: Vero
TEST_DETAILS: Cytotoxicity against Human coxsackievirus B4 infected african green monkey Vero cells by trypan blue exclusion method
Format: cell-based
RUN_CONDITIONS: chlorocebus sabaeus, vero
RESULT_TYPE: CC50

Take a look at these entries with their results.
COc1cc(/C=C/C(=O)CC(=O)/C=C/c2ccc(OC(=O)CCC(NC(=O)c3ccc(NCc4cnc5nc(N)[nH]c(=O)c5n4)cc3)C(=O)O)c(OC)c2)ccc1OC(=O)CCC(NC(=O)c1ccc(NCc2cnc3nc(N)[nH]c(=O)c3n2)cc1)C(=O)O (stereo unspecified) | > 82 nM
Nc1ncnc2c1ncn2C[C@H](O)CO [(S)-DHPA] | > 250000 nM
COc1cc(/C=C/C(=O)CC(=O)/C=C/c2ccc(OCCOC(=O)CCC(NC(=O)c3ccc(NCc4cnc5nc(N)[nH]c(=O)c5n4)cc3)C(=O)O)c(OC)c2)ccc1O (stereo unspecified) | > 119 nM

[in] Return CC50 (reported value) for this compound: COc1cc(/C=C/C(=O)CC(=O)/C=C/c2ccc(OC(=O)[C@H](Cc3ccccc3)NC(=O)[C@@H](N)Cc3c[nH]c4ccccc34)c(OC)c2)ccc1OC(=O)[C@H](Cc1ccccc1)NC(=O)[C@@H](N)Cc1c[nH]c2ccccc12
[out] 96 nM

[in] Return CC50 (reported value) for this compound: COc1cc(/C=C/C(=O)CC(=O)/C=C/c2ccc(O)c(OC)c2)ccc1O [CURCUMIN]
[out] 54 nM

[in] Return CC50 (reported value) for this compound: COc1cc(/C=C/C(=O)C(CCOC(=O)CCC(NC(=O)c2ccc(NCc3cnc4nc(N)[nH]c(=O)c4n3)cc2)C(=O)O)C(=O)/C=C/c2ccc(O)c(OC)c2)ccc1O (stereo unspecified)
[out] > 11 nM

* * *

Test system: Human alphaherpesvirus 2
TEST_DETAILS: Antiviral activity against Herpes simplex virus 2 G infected in HEL cells assessed as protection from virus-induced cytopathogenicity after 2 to 3 days by MTT assay
Format: functional, organism-based
RUN_CONDITIONS: Human alphaherpesvirus 2, strain G
pEC50: −log10 of the molar value.
RESULT_TYPE: pEC50

Take a look at these entries with their results.
COc1cc(/C=C/C(=O)CC(=O)/C=C/c2ccc(OCCOC(=O)CCC(NC(=O)c3ccc(NCc4cnc5nc(N)[nH]c(=O)c5n4)cc3)C(=O)O)c(OC)c2)ccc1O (configuration not stated) | < 6.92
COc1cc(/C=C/C(=O)C(CCOC(=O)CCC(NC(=O)c2ccc(NCc3cnc4nc(N)[nH]c(=O)c4n3)cc2)C(=O)O)C(=O)/C=C/c2ccc(O)c(OC)c2)ccc1O (configuration not stated) | < 7.96
NC(=O)c1ncn([C@@H]2O[C@H](CO)[C@@H](O)[C@H]2O)n1 | 4.30
CCCCCCCCCC(=O)Oc1ccc(/C=C/C(=O)CC(=O)/C=C/c2ccc(OC(=O)CCCCCCCCC)c(OC)c2)cc1OC | < 6.83
COc1cc(/C=C/C(=O)CC(=O)/C=C/c2ccc(O)c(OC)c2)ccc1O | 8.00

[in] Return pEC50 (reported value) for this molecule: COc1cc(/C=C/C(=O)CC(=O)/C=C/c2ccc(OC(=O)CCC(NC(=O)c3ccc(NCc4cnc5nc(N)[nH]c(=O)c5n4)cc3)C(=O)O)c(OC)c2)ccc1OC(=O)CCC(NC(=O)c1ccc(NCc2cnc3nc(N)[nH]c(=O)c3n2)cc1)C(=O)O (configuration not stated)
[out] < 7.09

[in] Return pEC50 (reported value) for this molecule: COc1cc(/C=C/C(=O)CC(=O)/C=C/c2ccc(OC(=O)[C@H](Cc3ccccc3)NC(=O)[C@@H](N)Cc3c[nH]c4ccccc34)c(OC)c2)ccc1OC(=O)[C@H](Cc1ccccc1)NC(=O)[C@@H](N)Cc1c[nH]c2ccccc12
[out] < 7.42

* * *

TEST_DETAILS: Cytotoxicity against VSV infected HEL cells by trypan blue exclusion method
Assay type: cell-based
RUN_CONDITIONS: human, HEL cells infected with VSV
CC50 by entry:

NC(=O)c1ncn([C@@H]2O[C@H](CO)[C@@H](O)[C@H]2O)n1 | > 250 µM

Below: the item to evaluate.
[in] Return CC50 (reported value) for this molecule: Nc1nc2c(ncn2COC(CO)CO)c(=O)[nH]1
[out] > 100 µM

* * *

TEST_DETAILS: Cytotoxicity against VSV infected human HeLa cells by trypan blue exclusion method
Assay type: cell-based
RUN_CONDITIONS: HeLa cells infected with VSV
RESULT_TYPE: CC50

[in] Return CC50 (reported value) for this compound: NC(=O)c1ncn([C@@H]2O[C@H](CO)[C@@H](O)[C@H]2O)n1
[out] > 250 µM

* * *

CC50 by entry:
Tested on: Vero
TEST_DETAILS: Cytotoxicity against Reovirus 1 infected african green monkey Vero cells by trypan blue exclusion method
Format: cell-based
RUN_CONDITIONS: chlorocebus sabaeus, vero

Take a look at these entries with their results.
COc1cc(/C=C/C(=O)C(CCOC(=O)CCC(NC(=O)c2ccc(NCc3cnc4nc(N)[nH]c(=O)c4n3)cc2)C(=O)O)C(=O)/C=C/c2ccc(O)c(OC)c2)ccc1O (stereo unspecified) | > 11 nM
COc1cc(/C=C/C(=O)CC(=O)/C=C/c2ccc(OC(=O)CCC(NC(=O)c3ccc(NCc4cnc5nc(N)[nH]c(=O)c5n4)cc3)C(=O)O)c(OC)c2)ccc1OC(=O)CCC(NC(=O)c1ccc(NCc2cnc3nc(N)[nH]c(=O)c3n2)cc1)C(=O)O (stereo unspecified) | > 82 nM
COc1cc(/C=C/C(=O)CC(=O)/C=C/c2ccc(OCCOC(=O)CCC(NC(=O)c3ccc(NCc4cnc5nc(N)[nH]c(=O)c5n4)cc3)C(=O)O)c(OC)c2)ccc1O (stereo unspecified) | > 119 nM
COc1cc(/C=C/C(=O)CC(=O)/C=C/c2ccc(OC(=O)[C@H](Cc3ccccc3)NC(=O)[C@@H](N)Cc3c[nH]c4ccccc34)c(OC)c2)ccc1OC(=O)[C@H](Cc1ccccc1)NC(=O)[C@@H](N)Cc1c[nH]c2ccccc12 | 96 nM
Nc1ncnc2c1ncn2C[C@H](O)CO [(S)-DHPA] | > 250000 nM

Below: the item to evaluate.
[in] Return CC50 (reported value) for this compound: COc1cc(/C=C/C(=O)CC(=O)/C=C/c2ccc(O)c(OC)c2)ccc1O
[out] 54 nM

* * *

Test system: HEL
TEST_DETAILS: Cytotoxicity against VSV infected HEL cells by trypan blue exclusion method
Format: cell-based
RUN_CONDITIONS: human, hel
CC50 by entry:

COc1cc(/C=C/C(=O)CC(=O)/C=C/c2ccc(O)c(OC)c2)ccc1O | > 2 nM
COc1cc(/C=C/C(=O)CC(=O)/C=C/c2ccc(OC(=O)CCC(NC(=O)c3ccc(NCc4cnc5nc(N)[nH]c(=O)c5n4)cc3)C(=O)O)c(OC)c2)ccc1OC(=O)CCC(NC(=O)c1ccc(NCc2cnc3nc(N)[nH]c(=O)c3n2)cc1)C(=O)O (stereo unspecified) | > 82 nM

[in] Return CC50 (reported value) for this compound: COc1cc(/C=C/C(=O)CC(=O)/C=C/c2ccc(OCCOC(=O)CCC(NC(=O)c3ccc(NCc4cnc5nc(N)[nH]c(=O)c5n4)cc3)C(=O)O)c(OC)c2)ccc1O (stereo unspecified)
[out] > 119 nM

[in] Return CC50 (reported value) for this compound: COc1cc(/C=C/C(=O)C(CCOC(=O)CCC(NC(=O)c2ccc(NCc3cnc4nc(N)[nH]c(=O)c4n3)cc2)C(=O)O)C(=O)/C=C/c2ccc(O)c(OC)c2)ccc1O (stereo unspecified)
[out] > 11 nM

[in] Return CC50 (reported value) for this compound: COc1cc(/C=C/C(=O)CC(=O)/C=C/c2ccc(OC(=O)[C@H](Cc3ccccc3)NC(=O)[C@@H](N)Cc3c[nH]c4ccccc34)c(OC)c2)ccc1OC(=O)[C@H](Cc1ccccc1)NC(=O)[C@@H](N)Cc1c[nH]c2ccccc12
[out] 19 nM

[in] Return CC50 (reported value) for this compound: O=c1[nH]c(=O)n([C@H]2C[C@H](O)[C@@H](CO)O2)cc1/C=C/Br
[out] > 250000 nM

* * *

TEST_DETAILS: Cytotoxicity against Feline coronavirus infected cat CRFK cells by trypan blue exclusion method
Type: cell-based, Felis catus
RUN_CONDITIONS: crfk
CC50 by entry:

Take a look at these entries with their results.
COc1cc(/C=C/C(=O)C(CCOC(=O)CCC(NC(=O)c2ccc(NCc3cnc4nc(N)[nH]c(=O)c4n3)cc2)C(=O)O)C(=O)/C=C/c2ccc(O)c(OC)c2)ccc1O (centres undefined) | > 11 nM
COc1cc(/C=C/C(=O)CC(=O)/C=C/c2ccc(O)c(OC)c2)ccc1O [CURCUMIN] | > 271 nM
COc1cc(/C=C/C(=O)CC(=O)/C=C/c2ccc(OC(=O)[C@H](Cc3ccccc3)NC(=O)[C@@H](N)Cc3c[nH]c4ccccc34)c(OC)c2)ccc1OC(=O)[C@H](Cc1ccccc1)NC(=O)[C@@H](N)Cc1c[nH]c2ccccc12 | > 96 nM

[in] Return CC50 (reported value) for this molecule: COc1cc(/C=C/C(=O)CC(=O)/C=C/c2ccc(OCCOC(=O)CCC(NC(=O)c3ccc(NCc4cnc5nc(N)[nH]c(=O)c5n4)cc3)C(=O)O)c(OC)c2)ccc1O (centres undefined)
[out] > 119 nM
